biological target: SARS-CoV-2 3CLpro (Severe acute respiratory syndrome coronavirus 2); experiment: biochemical; format: biochemical; conditions: 4 h, read-out: mean
Structures can show the parent of a compound that is named as a salt.

COMPOUND	inhibition at 5 µM [%]
CC(NC(C)(C)C)C(=O)c1cccc(Cl)c1 (stereo not shown) [Bupropion hydrochloride]	2.67
N=C(N)N1CCc2ccccc2C1 [Debrisoquin sulfate]	2.96
Oc1ccc(O)cc1 [Hydroquinone]	1.23
CCCC(C)(COC(N)=O)COC(=O)NC(C)C (stereo not shown)	0.96
COc1cc([C@@H]2c3cc4c(cc3[C@H](O)[C@H]3COC(=O)[C@H]23)OCO4)cc(OC)c1OC	3.8
NNCCc1ccccc1 [Phenelzine sulfate]	-0.773
C[C@@]12C(=O)OC(=O)[C@]1(C)[C@H]1CC[C@@H]2O1	0.988
CCN(CC)CCCC(C)Nc1ccnc2cc(Cl)ccc12 (stereo not shown) [Chloroquine diphosphate]	2.97
O=C(O)CCc1nc(-c2ccccc2)c(-c2ccccc2)o1	3.42
Cc1cccc(C)c1N=C1NCCCS1 [Xylazine hydrochloride]	1.31

====

target: SARS-CoV-2 3CLpro (Severe acute respiratory syndrome coronavirus 2, UniProt P0DTD1); assay: biochemical; type: biochemical; details: 4 h, sheet LOPAC_screen_w_protease; primary screen with protease, mean of two replicates; read-out: mean
Where a name gives a salt, the structure may show the parent alone.
Each entry below carries its reported inhibition at 5 µM.

COMPOUND	STUDY_TARGET	inhibition at 5 µM, %
CO/N=C(\C(=O)N[C@@H]1C(=O)N2C(C(=O)O)=C(COC(C)=O)CS[C@H]12)c1csc(N)n1 [Cefotaxime sodium]	SARS-CoV-2 3CLpro (Severe acute respiratory syndrome coronavirus 2, UniProt P0DTD1)	2.42
Nc1nc2[nH]c(=O)cnc2c(=O)[nH]1	SARS-CoV-2 3CLpro (Severe acute respiratory syndrome coronavirus 2, UniProt P0DTD1)	2.42
CC[N+](C)(C)c1cccc(O)c1 [Edrophonium chloride]	SARS-CoV-2 3CLpro (Severe acute respiratory syndrome coronavirus 2, UniProt P0DTD1)	2.25
N=C(N)SCCc1cnc[nH]1 [Imetit dihydrobromide]	SARS-CoV-2 3CLpro (Severe acute respiratory syndrome coronavirus 2, UniProt P0DTD1)	2.25
COc1ccc2c(c1)c(CC(=O)N1CCOCC1)c(C)n2C(=O)c1ccc(Cl)cc1 [Indomethacin morpholinylamide]	SARS-CoV-2 3CLpro (Severe acute respiratory syndrome coronavirus 2, UniProt P0DTD1)	2.27
CC(C)(Oc1ccc(C2CC2(Cl)Cl)cc1)C(=O)O (centres unmarked) [Ciprofibrate]	SARS-CoV-2 3CLpro (Severe acute respiratory syndrome coronavirus 2, UniProt P0DTD1)	2.4
CN(C(=O)CCCOc1ccc2[nH]c(=O)ccc2c1)C1CCCCC1 [Cilostamide]	SARS-CoV-2 3CLpro (Severe acute respiratory syndrome coronavirus 2, UniProt P0DTD1)	2.23
CCCCCCC(C)(C)c1ccc([C@@H]2C[C@H](O)CC[C@H]2CCCO)c(O)c1	SARS-CoV-2 3CLpro (Severe acute respiratory syndrome coronavirus 2, UniProt P0DTD1)	2.22
NC12CC3CC(CC(C3)C1)C2 [Amantadine hydrochloride]	SARS-CoV-2 3CLpro (Severe acute respiratory syndrome coronavirus 2, UniProt P0DTD1)	2.48
CC(C)[C@H](CO)Nc1nc(Nc2cccc(Cl)c2)c2ncn(C(C)C)c2n1	SARS-CoV-2 3CLpro (Severe acute respiratory syndrome coronavirus 2, UniProt P0DTD1)	2.33
C#C[C@]1(O)CC[C@H]2[C@@H]3CCC4=Cc5oncc5C[C@]4(C)[C@H]3CC[C@@]21C	SARS-CoV-2 3CLpro (Severe acute respiratory syndrome coronavirus 2, UniProt P0DTD1)	2.5
CCCCc1ccc(C(=O)O)nc1	SARS-CoV-2 3CLpro (Severe acute respiratory syndrome coronavirus 2, UniProt P0DTD1)	2.51
CN(C)C(=O)C(CCN1CCC(O)(c2ccc(Cl)cc2)CC1)(c1ccccc1)c1ccccc1 [Loperamide hydrochloride]	SARS-CoV-2 3CLpro (Severe acute respiratory syndrome coronavirus 2, UniProt P0DTD1)	2.22
c1ccc2c(c1)CCCC2C1=NCCN1 (centres unmarked) [Tetrahydrozoline hydrochloride]	SARS-CoV-2 3CLpro (Severe acute respiratory syndrome coronavirus 2, UniProt P0DTD1)	2.26
NC(=Nc1ccccc1)NC(=O)c1nc(Cl)c(N)nc1N [Phenamil methanesulfonate]	SARS-CoV-2 3CLpro (Severe acute respiratory syndrome coronavirus 2, UniProt P0DTD1)	2.43
Oc1ccc(-c2nc(-c3ccncc3)c(-c3ccc(F)cc3)[nH]2)cc1	SARS-CoV-2 3CLpro (Severe acute respiratory syndrome coronavirus 2, UniProt P0DTD1)	2.45
COc1ccc(CN(CCN(C)C)c2ccccn2)cc1 [Pyrilamine maleate]	SARS-CoV-2 3CLpro (Severe acute respiratory syndrome coronavirus 2, UniProt P0DTD1)	2.44
O=C1NCC2(CCN(CCc3ccccc3)CC2)O1 [Fenspiride hydrochloride]	SARS-CoV-2 3CLpro (Severe acute respiratory syndrome coronavirus 2, UniProt P0DTD1)	2.48
CC(C)COC(=O)OCN1C(=O)CN(CCN2CC(=O)N(COC(=O)OCC(C)C)C(=O)C2)CC1=O	SARS-CoV-2 3CLpro (Severe acute respiratory syndrome coronavirus 2, UniProt P0DTD1)	2.23
Cc1c2ccncc2c(C)c2c1[nH]c1ccccc12	SARS-CoV-2 3CLpro (Severe acute respiratory syndrome coronavirus 2, UniProt P0DTD1)	2.32
O=C(O)C1=CCCNC1 [Guvacine hydrochloride]	SARS-CoV-2 3CLpro (Severe acute respiratory syndrome coronavirus 2, UniProt P0DTD1)	2.3
CC(CN(C)C)CN1c2ccccc2CCc2ccccc21 (centres unmarked) [Trimipramine maleate]	SARS-CoV-2 3CLpro (Severe acute respiratory syndrome coronavirus 2, UniProt P0DTD1)	2.36
CN1C(C)(C)CCCC1(C)C [Pempidine tartrate]	SARS-CoV-2 3CLpro (Severe acute respiratory syndrome coronavirus 2, UniProt P0DTD1)	2.3
NS(=O)(=O)c1cc2c(cc1Cl)NCNS2(=O)=O [Hydrochlorothiazide]	SARS-CoV-2 3CLpro (Severe acute respiratory syndrome coronavirus 2, UniProt P0DTD1)	2.22
N=c1ccn2c(n1)O[C@H]1[C@H](O)[C@@H](CO)O[C@H]12 [Ancitabine hydrochloride]	SARS-CoV-2 3CLpro (Severe acute respiratory syndrome coronavirus 2, UniProt P0DTD1)	2.45
O=C1CCc2cc(OCCCCc3nnnn3C3CCCCC3)ccc2N1	SARS-CoV-2 3CLpro (Severe acute respiratory syndrome coronavirus 2, UniProt P0DTD1)	2.16
CN1CCN(CCCN2c3ccccc3Sc3ccc(Cl)cc32)CC1 [Prochlorperazine dimaleate]	SARS-CoV-2 3CLpro (Severe acute respiratory syndrome coronavirus 2, UniProt P0DTD1)	2.43
OCCN1CCN(CC/C=C2/c3ccccc3Sc3ccc(C(F)(F)F)cc32)CC1 [cis-(Z)-Flupenthixol dihydrochloride]	SARS-CoV-2 3CLpro (Severe acute respiratory syndrome coronavirus 2, UniProt P0DTD1)	2.17
N=C(N)c1ccccc1 [Benzamidine hydrochloride]	SARS-CoV-2 3CLpro (Severe acute respiratory syndrome coronavirus 2, UniProt P0DTD1)	2.38
CC1=C(C)C(=O)C(CCCCC#CCCCC#CCO)=C(C)C1=O	SARS-CoV-2 3CLpro (Severe acute respiratory syndrome coronavirus 2, UniProt P0DTD1)	2.27
OC[C@H]1O[C@@H](n2cnc3c(NC4CCCC4)ncnc32)[C@H](O)[C@@H]1O	SARS-CoV-2 3CLpro (Severe acute respiratory syndrome coronavirus 2, UniProt P0DTD1)	2.13
NC(=O)OCC(COC(N)=O)c1ccccc1 [Felbamate]	SARS-CoV-2 3CLpro (Severe acute respiratory syndrome coronavirus 2, UniProt P0DTD1)	2.23
NCCCCCCCCCCN	SARS-CoV-2 3CLpro (Severe acute respiratory syndrome coronavirus 2, UniProt P0DTD1)	2.36
CNC(=O)[C@H]1O[C@@H](n2cnc3c(NCc4cccc(I)c4)ncnc32)[C@H](O)[C@@H]1O	SARS-CoV-2 3CLpro (Severe acute respiratory syndrome coronavirus 2, UniProt P0DTD1)	2.39
COc1ccc2[nH]cc(CCNC(C)=O)c2c1	SARS-CoV-2 3CLpro (Severe acute respiratory syndrome coronavirus 2, UniProt P0DTD1)	2.28
C[C@H](O)C(=O)C1=Nc2c(nc(N)[nH]c2=O)NC1 [Sepiapterin]	SARS-CoV-2 3CLpro (Severe acute respiratory syndrome coronavirus 2, UniProt P0DTD1)	2.57
CN1CCN(C2=Nc3cc(Cl)ccc3Nc3ccccc32)CC1	SARS-CoV-2 3CLpro (Severe acute respiratory syndrome coronavirus 2, UniProt P0DTD1)	2.28
Cn1c(=O)c2c(ncn2C)n(C)c1=O	SARS-CoV-2 3CLpro (Severe acute respiratory syndrome coronavirus 2, UniProt P0DTD1)	2.35
